System: PC-3 PIP/flu tumor-bearing mice
PROTOCOL_SUMMARY: Biodistribution studies in PC-3 PIP/flu tumor-bearing mice
MEASUREMENT_CONTEXT: 24 h p.i.
Assign Lung to each entry below.
Answer in % IA/g, number only, no unit symbol.

Name the recorded Lung of the item O=C(O)CCC(NC(=O)NC(CCCCNC(=O)C(Cc1ccc2ccccc2c1)NC(=O)C1CCC(CNC(=O)C(CCCCNC(=O)CN2CCN(CC(=O)O)CCN(CC(=O)O)CCN(CC(=O)O)CC2)NC(=O)CC(NC(=O)CC(NC(=O)CCCc2ccc(I)cc2)C(=O)O)C(=O)O)CC1)C(=O)O)C(=O)O (stereo not drawn) [^177Lu-PSMA-ALB-05, metal not drawn] in your answer.
1.80

Name the recorded Lung of the item O=C(O)CCC(NC(=O)NC(CCCCNC(=O)C(Cc1ccc2ccccc2c1)NC(=O)C1CCC(CNC(=O)C(CCCCNC(=O)CCCc2ccc(I)cc2)NC(=O)CN2CCN(CC(=O)O)CCN(CC(=O)O)CCN(CC(=O)O)CC2)CC1)C(=O)O)C(=O)O (stereo not drawn) [^177Lu-PSMA-ALB-03, metal not drawn] in your answer.
9.86

Name the recorded Lung of the item O=C(O)CCC(NC(=O)NC(CCCCNC(=O)C(Cc1ccc2ccccc2c1)NC(=O)C1CCC(CNC(=O)C(CCCCNC(=O)CN2CCN(CC(=O)O)CCN(CC(=O)O)CCN(CC(=O)O)CC2)NC(=O)CC(NC(=O)CC(NC(=O)CC(NC(=O)CCCc2ccc(I)cc2)C(=O)O)C(=O)O)C(=O)O)CC1)C(=O)O)C(=O)O (stereo not drawn) [^177Lu-PSMA-ALB-07, metal not drawn] in your answer.
0.73
